These entries and their values trace back to ChEMBL document CHEMBL1132410.

# measured on: Alpha-1B adrenergic receptor (Homo sapiens, UniProt P35368)
# Sequence (P35368 whole entry): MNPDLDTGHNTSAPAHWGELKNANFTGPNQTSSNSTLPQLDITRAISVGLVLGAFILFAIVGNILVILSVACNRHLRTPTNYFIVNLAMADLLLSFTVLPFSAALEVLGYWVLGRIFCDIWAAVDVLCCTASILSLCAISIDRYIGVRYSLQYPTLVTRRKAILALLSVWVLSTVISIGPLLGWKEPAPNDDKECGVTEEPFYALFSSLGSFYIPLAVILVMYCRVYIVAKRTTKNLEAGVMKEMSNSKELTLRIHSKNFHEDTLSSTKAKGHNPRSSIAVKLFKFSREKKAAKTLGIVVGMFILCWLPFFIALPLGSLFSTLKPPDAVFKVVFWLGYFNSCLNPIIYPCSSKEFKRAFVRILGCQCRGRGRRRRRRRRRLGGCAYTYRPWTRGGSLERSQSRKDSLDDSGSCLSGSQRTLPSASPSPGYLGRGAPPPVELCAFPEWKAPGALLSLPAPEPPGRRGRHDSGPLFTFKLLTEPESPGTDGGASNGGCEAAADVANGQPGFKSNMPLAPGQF
# test details: Compound was tested for its binding affinity against adrenergic Alpha-1B adrenergic receptor
measurement label: Ki (nM)
Lab book: enter the figure in nM, no units written.

Report Ki for `COc1ccc(NS(=O)(=O)c2ccc(Br)cc2)cc1N1CCN(C)CC1`
2510

Report Ki for `COc1ccc(NS(=O)(=O)c2sc3ccc(Cl)cc3c2C)cc1N1CCNCC1`
2000
